# experimentDescription: Multiple-ascending-dose phase 1 study: plasma and urine pharmacokinetics
# Format: in vivo, humans
# experimentalSetup: human; 200 mg IV once weekly x2, day 1, plasma, arithmetic mean; read-out: AUC0–168
Numbered stars: 1 amine (or outer) side, 2 acyl side, 3 side chain; on linkers, the order of the positions; unused ones are H or OH. Bridge positions count the residues as written; N and C are the ends. Square brackets hold non-standard residues; d marks the D form. Peptide text beside a SMILES is read from it. * marks the point of attachment. Orn(4R-OH,5R-OCH2CH2NMe3+) = C[N+](C)(C)CCO[C@@H](N[*:3])[C@H](O)C[C@H](N[*:1])C(=O)[*:2]; pTerphenylCO(4''-OnC5H11) = CCCCCOc1ccc(-c2ccc(-c3ccc(C(=O)*)cc3)cc2)cc1; hTyr(3S-OH,4S-OH) = N[C@H](C(=O)O)[C@H](O)[C@@H](O)c1ccc(O)cc1; Pro(3S-OH,4S-Me) = C[C@H]1CN[C@H](C(=O)O)[C@H]1O; Hyp = O=C(O)[C@@H]1C[C@@H](O)CN1
measurementLabel: AUC(0-t) (µg·h/mL)
Kindly provide the numeric value in µg·h/mL only, without the unit symbol.

Tell me AUC(0-t) reported for CCCCCOc1ccc(-c2ccc(-c3ccc(C(=O)N[C@H]4C[C@@H](O)[C@@H](OCC[N+](C)(C)C)NC(=O)[C@@H]5[C@@H](O)[C@@H](C)CN5C(=O)[C@H]([C@@H](C)O)NC(=O)[C@H]([C@H](O)[C@@H](O)c5ccc(O)cc5)NC(=O)[C@@H]5C[C@@H](O)CN5C(=O)[C@H]([C@@H](C)O)NC4=O)cc3)cc2)cc1 [CD101] ({pTerphenylCO(4''-OnC5H11)}-[Orn(4R-OH,5R-OCH2CH2NMe3+)]T[Hyp][hTyr(3S-OH,4S-OH)]T[Pro(3S-OH,4S-Me)]; lactam 1-C)
570
